B1: CSNK1G1 (parent)
chain: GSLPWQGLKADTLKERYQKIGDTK

# Variants of: B1
# PROCEDURE_SUMMARY: protein stability index of a GFP-peptide fusion (GPS, HEK-293T) (PSI 1-6); higher = more stable;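 also: lentivirally expressed fusions sorted by FACS into six bins by GFP to DsRed ratio, PSI derived from sequencing read proportions per bin multiplied by bin number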
# CONDITION: c terminus: a fixed tail appended
OBSERVATION_TYPE: protein stability index
Could you keep your reply to the number by itself?

Guide cases for protein stability index, answers given:
mutation_code=G21E test_value=4.37
mutation_code=D22Y test_value=2.98
mutation_code=D22E test_value=3.91

## Input Indicate the recorded protein stability index value for this variant: Q6G
## Output 4.13

## Input Please indicate protein stability index recorded for L3W
## Output 3.41

## Input Give the value of protein stability index reported for the following: L8R
## Output 4.32

## Input Report measured protein stability index; entry is L8Y
## Output 3.63

## Input Provide one value: measured protein stability index of P4I
## Output 3.67
